Biological target: Beta-secretase 1 (Homo sapiens)
Sequence (P56817 whole entry): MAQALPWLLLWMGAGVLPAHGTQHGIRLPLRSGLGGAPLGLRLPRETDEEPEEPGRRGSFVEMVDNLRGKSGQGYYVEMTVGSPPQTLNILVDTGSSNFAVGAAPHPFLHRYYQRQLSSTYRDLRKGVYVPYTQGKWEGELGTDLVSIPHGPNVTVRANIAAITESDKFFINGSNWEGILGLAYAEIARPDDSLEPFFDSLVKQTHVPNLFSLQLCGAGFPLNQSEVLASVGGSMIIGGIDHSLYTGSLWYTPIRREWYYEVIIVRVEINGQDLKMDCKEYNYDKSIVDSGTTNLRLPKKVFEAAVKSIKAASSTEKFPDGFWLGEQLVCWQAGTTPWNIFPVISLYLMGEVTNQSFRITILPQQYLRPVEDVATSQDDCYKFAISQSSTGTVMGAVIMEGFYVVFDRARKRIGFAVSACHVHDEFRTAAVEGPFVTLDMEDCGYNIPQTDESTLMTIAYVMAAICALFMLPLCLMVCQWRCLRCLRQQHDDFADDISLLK
Experiment: Inhibition of human recombinant BACE1 using fluorescent peptide substrate at 10 ug/ml after 5 mins
property name: inhibition (%)

Study these solved cases before continuing.
{"columns": ["smiles record", "assay target", "measured result"],
 "data": [
  ["CC(C)[C@H](NC(=O)OC(C)(C)C)C(=O)N[C@@H](Cc1ccccc1)C(=O)N[C@@H](C(C)C)[C@@H](O)C[C@@H](C)C(=O)NCc1ccccc1", "Beta-secretase 1 (Homo sapiens)", -1.56],
  ["CC(C)CNC(=O)[C@H](C)C[C@H](O)[C@H](CC(C)C)NC(=O)[C@H](Cc1ccccc1)NC(=O)c1ccc([N+](=O)[O-])cc1", "Beta-secretase 1 (Homo sapiens)", 1.47]
]}

A: COc1ccc(CC(=O)N[C@@H](CO)C(=O)N[C@@H](CC(C)C)[C@@H](O)C[C@@H](C)C(=O)NCc2ccccc2)cc1
B: CC[C@H](C)[C@H](NC(=O)OC(C)(C)C)C(=O)N[C@@H](Cc1ccccc1)C(=O)N[C@@H](CC(C)C)[C@@H](O)C[C@@H](C)C(=O)NCC(C)C
C: CC(C)CNC(=O)[C@H](C)C[C@H](O)[C@H](CC(C)C)NC(=O)[C@H](Cc1ccc([N+](=O)[O-])cc1)NC(=O)/C=C/c1ccccc1
Reorder the items by inhibition, least to greatest. Output spec: a listing of the labels in the requested order.
B, A, C
(B: -0.71%, A: 25.1%, C: 37.2%)
